Assay: qHTS assay to identify small molecule agonists of the RXR signaling pathway - cell viability counter screen (AID 1159529);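 further: HEK 293T cells carrying an RXR-alpha UAS beta-lactamase reporter; nearly all actives have a fitted effect of over 50% in size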
Conditions: RXR-alpha-bla HEK293T viability, CellTiter-Glo, 16 h; series mostly up to 76.8 µM
Inconclusive results are not listed. Activity calls are given as the source filed them. The call rests on the fitted dose curve; in most records, active means well fitted cell-killing curve with a large enough effect in the repeat runs; inconclusive means weak or mixed curves, or effect the other way; inactive means no such curve, though single readings can be large or run the other way.
Choose one outcome from this list and give only that: active, inactive

> print(dat)
                                   compound  category.label
1      Cc1cccc(C)c1NC(=O)CN(CC(=O)O)CC(=O)O        inactive
2  COc1ccc(C(=O)N2CCN(CC(=O)N3CCOCC3)CC2)cc1        inactive
3              CC(=O)c1cccc([N+](=O)[O-])c1        inactive
4        C=CC1CC2C=CC1C2 (stereo not given)        inactive

// param item: `Cc1nn(C)c(Oc2ccccc2)c1/C=N/OCc1ccc(C(=O)OC(C)(C)C)cc1` ; yields the recorded call
inactive

Recorded test call requested for `CCn1cc(C(=O)O)c(=O)c2cnc(N3CCNCC3)nc21`
inactive

What call does the record list for `CN(C)c1ccc(CCO)cc1` ?
inactive

Look up the recorded call for `C=C1[C@H]2CC[C@@H]3[C@H]2C(C)(C)CCC[C@]13C` in this test.
inactive

----------
Molecular target: Cytochrome P450 2D6 (Homo sapiens) (UniProt P10635)
Sequence (P10635 whole entry, looked up): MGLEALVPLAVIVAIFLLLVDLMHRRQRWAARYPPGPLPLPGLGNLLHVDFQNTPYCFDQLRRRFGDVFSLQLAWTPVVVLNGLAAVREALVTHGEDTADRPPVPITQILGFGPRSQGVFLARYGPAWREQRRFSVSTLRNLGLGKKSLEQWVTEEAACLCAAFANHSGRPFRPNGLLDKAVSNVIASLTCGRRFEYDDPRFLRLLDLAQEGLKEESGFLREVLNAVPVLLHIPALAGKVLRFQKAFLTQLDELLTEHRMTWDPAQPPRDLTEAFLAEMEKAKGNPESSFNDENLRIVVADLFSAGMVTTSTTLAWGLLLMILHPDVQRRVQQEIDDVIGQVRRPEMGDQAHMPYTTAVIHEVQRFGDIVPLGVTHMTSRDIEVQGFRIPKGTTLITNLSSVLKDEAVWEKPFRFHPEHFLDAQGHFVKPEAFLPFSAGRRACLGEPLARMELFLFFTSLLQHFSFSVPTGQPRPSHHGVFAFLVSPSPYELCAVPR
Test: Cytochrome P450 Family 2 Subfamily D Member 6 (CYP2D6) small molecule antagonists: luciferase reporter qHTS assay (AID 1671196); further: nearly all actives have a fitted effect of over 50% in size
Conditions: P450-Glo CYP2D6 enzyme assay, luciferin luminescence, 1 h; series mostly up to 115 µM
From the text: U.S. Tox21 Program National Center for Advancing Translational Sciences [NCATS] U.S. Environmental Protection Agency [EPA] National Institutes of Environmental Health Sciences [NIEHS] National Toxicology Program [NTP] U.S. Food and Drug Administration [FDA] […] The luciferin products formed are detected with a luciferin detection reagent, and the amount of light produced is proportional to CYP activity. […]
Results filed as inconclusive are left out. Active and inactive are the calls of the source. Calls come from the whole dose curve; as a rule, active = well fitted inhibition curve with a large enough effect in the repeat runs; inconclusive = weak or mixed curves; inactive = no such curve, though single readings can be large or run the other way.
Hi there, use one of these labels in your reply, thanks! active, inactive

Called result for `CCCCC`
inactive

Name the outcome recorded for `Nc1ccc(N)c2c1C(=O)c1ccccc1C2=O` in the assay.
active

----------
Assay: qHTS assay to identify small molecule antagonists of the estrogen related receptor (ERR) signaling pathway from Tox21 library - cell viability counter screen (AID 1224834); further: nearly all actives have a fitted effect of over 30% in size
Settings: ERR reporter cells viability, CellTiter-Fluor, 17.5 h; series mostly up to 92.4 µM
Records with an inconclusive call do not appear. The source made the active and inactive calls. Calls follow the shape of the dose curve; as a rule, active = well fitted cell-killing curve with a large enough effect in the repeat runs; inconclusive = weak or mixed curves; inactive = flat fitted curve, though single readings scatter.
Lab note: assign the record to one of active, inactive

Completed entries (count: 5):
> print(dat)
                                   molecule  category.label
1  CNC(=O)CN(CCN(CCN(CC(=O)[O-])CC(=O)NC)CC(=O)[O-])CC(=O)[O-].O.[Gd+3]        inactive
2         O=C(Cl)c1cc(C(=O)Cl)cc(C(=O)Cl)c1        inactive
3                Nc1ccccc1S(=O)(=O)c1ccccc1        inactive
4  Cc1ccc(C(=O)Oc2ccc(C(O)CNC(C)(C)C)cc2OC(=O)c2ccc(C)cc2)cc1 (stereo unspecified)        inactive
5  C[N+]1(C)CCC(OC(=O)C(O)(c2ccccc2)C2CCCC2)C1 (stereo unspecified)        inactive

With those in mind, consider the next molecule.
Each molecule tested received a call. Report the one for `O=S(=O)(Oc1ccc(Cl)cc1)c1ccccc1` .
inactive

----------
Experiment: qHTS assay to identify small molecule antagonists of the thyroid receptor (TR) signaling pathway - cell viability counter screen (AID 743064); further: nearly all actives have a fitted effect of over 50% in size
Conditions: GH3.TRE-Luc viability, CellTiter-Fluor, 24 h; series mostly up to 70.3 µM
Results filed as inconclusive are left out. The source made the active and inactive calls. Calls follow the shape of the dose curve; as a rule, active = well fitted cell-killing curve with a large enough effect in the repeat runs; inconclusive = weak or mixed curves, or effect the other way; inactive = no such curve, though single readings can be large or run the other way.
Please state which outcome applies, choosing from Y (active), N (inactive)

> print(dat)
                                   molecule  category.label
1             C[Si](C)(CCCN)O[Si](C)(C)CCCN               N
2  CCOc1ccc(N=Nc2ccc(/C=C/c3ccc(N=Nc4ccc(OCC)cc4)cc3S(=O)(=O)O)c(S(=O)(=O)O)c2)cc1               Y
3  CCCCc1nc2cccnc2n1Cc1ccc(-c2ccccc2-c2nnn[nH]2)cc1               Y
4                       CCCCCCCCCCCc1ccccc1               N
5               CN(C)CCN(Cc1ccccc1)c1ccccn1               N
6  CCCCCCCCO[C@@H]1O[C@H](CO)[C@@H](O)[C@H](O)[C@H]1O               N

Field: outcome | Entry: `CCCn1cnc2c1c(=O)n(CCCCC(C)=O)c(=O)n2C`
N

Per the assay record, what outcome was assigned to `CC(=O)[O][Al][O]C(C)=O` ?
N

Outcome? `CCOC(=O)c1cccnc1`
N

State the result this test recorded for CC1CCC(=O)C1=O (configuration not stated) .
N

What was the test verdict on CC(C)(C)OCC1CO1 (configuration not stated) ?
N

What did this assay record as the result for COc1cc2nc(N(C)CCCNC(=O)C3CCCO3)nc(N)c2cc1OC (configuration not stated) ?
N

// return assay outcome for `O=C1[C@H]2CCCC[C@H]2C(=O)N1CCCCN1CCN(c2nsc3ccccc23)CC1`
Y

GET /call?item= `CCn1cc(C(=O)O)c(=O)c2cnc(N3CCNCC3)nc21` returns the recorded outcome of this test.
N

Dear colleague, could you share the recorded outcome for `COc1cccc(N(C)C(=S)Oc2ccc3c(c2)CCCC3)n1` when you have a moment?
N

Record lookup: outcome of this test for `CCC(=O)O[C@]1(C(=O)CCl)[C@@H](C)C[C@H]2[C@@H]3CCC4=CC(=O)C=C[C@]4(C)[C@@]3(F)[C@@H](O)C[C@@]21C` ?
N

Hi team, can someone confirm the assay call for CCC(Cl)CCC(Cl)C(Cl)CC(Cl)C(Cl)C(Cl)CCl (configuration not stated) ?
N

Call for entry `O=C(Nc1ccccc1)c1ccccc1O` :
N

Test call, this molecule: `Cn1c(=O)cc(Oc2ccc(F)cc2F)c2cnc(NCC(C)(C)O)nc21`
N

----------
Assay: qHTS assay to identify small molecule antagonists of the constitutive androstane receptor (CAR) signaling pathway - cell viability counter screen (AID 1224837); further: nearly all actives have a fitted effect of over 45% in size; further: potency means the concentration at half of the fitted maximal effect
Conditions: HepG2-CYP2B6-hCAR viability, CellTiter-Fluor, 23 h, co-treated with 50 nM CITCO; series mostly up to 92.4 µM
Results filed as inconclusive are left out. Active and inactive are the calls of the source. Calls come from the whole dose curve; as a rule, active = well fitted cell-killing curve with a large enough effect in the repeat runs; inconclusive = weak or mixed curves, or effect the other way; inactive = flat fitted curve, though single readings scatter.
VALUE KIND: Potency

Example entries and their recorded answers appear below.
> print(dat)
                                   molecule  value.kind  experimental.result
1  COc1ccnc(CS(=O)c2nc3ccc(OC(F)F)cc3[nH]2)c1OC (centres undefined)     Potency             inactive
2  C=C1[C@H]2CC[C@@H]3[C@H]2C(C)(C)CCC[C@]13C     Potency             inactive
3        NS(=O)(=O)c1ccc(N2CCCCS2(=O)=O)cc1     Potency             inactive
4  COC(=O)C1=C(C)NC(COC(N)=O)=C(C(=O)OC(C)C)C1c1cccc(Cl)c1Cl (centres undefined)     Potency             inactive
5  c1ccc(C(O[C@H]2CCCN(CCc3ccc4c(c3)OCO4)C2)c2ccccc2)cc1     Potency             inactive

Hi, could you look up Potency for each item in my list?
1. COc1cc2nc(N3CCN(C(=O)C4COc5ccccc5O4)CC3)nc(N)c2cc1OC (centres undefined)
2. Cn1c(=O)cc(Oc2ccc(F)cc2F)c2cnc(NCC(C)(C)O)nc21
3. O=CC1CC=CCC1 (centres undefined)
4. C#CCN(C)CCCOc1ccc(Cl)cc1Cl
5. C=C1C(=C/C=C2\CCC[C@]3(C)[C@@H]([C@H](C)/C=C/[C@@H](O)C4CC4)CC[C@@H]23)C[C@@H](O)C[C@@H]1O
6. Cc1ccc(C(C)OC(=O)C2(C)CCC(C(=O)O)C2(C)C)cc1 (centres undefined)
7. CC(COCCO)OCCO (centres undefined)
8. Nc1ccc(N)c2c1C(=O)c1ccccc1C2=O

1: inactive; 2: inactive; 3: inactive; 4: inactive; 5: inactive; 6: inactive; 7: inactive; 8: 15.4 µM (active)

Entry `CCCCCCCCCCCCN1CCCCCC1=O` : reported Potency = ?
inactive

----------
Assay: qHTS assay for identifying genotoxic compounds that show differential cytotoxicity against isogenic chicken DT40 cell lines with known DNA damage response pathways - Rev3 mutant cell line (AID 743014); further: nearly all actives have a fitted effect of over 55% in size
Conditions: chicken DT40 Rev3-/- viability, CellTiter-Glo, 40 h; series mostly up to 68.4 µM
Source text: National Center for Advancing Translational Sciences [NCATS] NIH Chemical Genomics Center [NCGC] U.S. Environmental Protection Agency [EPA] National Institutes of Environmental Health Sciences [NIEHS] National Toxicology Program [NTP] U.S. Food and Drug Administration [FDA] DNA repair pathways play a critical role in cellular homeostasis by repairing DNA damage induced by endogenous processes and xenobiotics. […]
Results filed as inconclusive are left out. Active and inactive are the calls of the source. Calls follow the shape of the dose curve; as a rule, active = well fitted cell-killing curve with a large enough effect in the repeat runs; inconclusive = weak or mixed curves, or effect the other way; inactive = no such curve, though single readings can be large or run the other way.
Just give me one of these, please: active, inactive

> print(dat)
                                   molecule  category.label
1         O=C(Cl)c1cc(C(=O)Cl)cc(C(=O)Cl)c1          active
2                      Cc1cccc(Nc2ccccc2)c1          active
3                        CN(C)c1ccc(CCO)cc1        inactive
4  C#Cc1cccc(Nc2ncnc3cc(OCCOC)c(OCCOC)cc23)c1          active
5                            C=C(C)C(=O)OCC        inactive

// return assay outcome for `Nc1ncn([C@H]2C[C@H](O)[C@@H](CO)O2)c(=O)n1`
active

Name the outcome recorded for `CCCCCCCCO[C@@H]1O[C@H](CO)[C@@H](O)[C@H](O)[C@H]1O` in the assay.
inactive

How did this test come out for `c1ccc(C(O[C@H]2CCCN(CCc3ccc4c(c3)OCO4)C2)c2ccccc2)cc1` ?
active

Identify the outcome logged in this assay for the molecule shown: `CN(C)CCN(Cc1ccccc1)c1ccccn1`
inactive

Answer briefly: the call reported for `CCCCCCCN` in this assay.
inactive

Any idea what this test logged for CCCCC(CC)COC(=O)CCCCCCCCC(=O)OCC(CC)CCCC (centres undefined) ?
inactive

Look up the recorded call for `COC(C)(C)CCO` in this test.
inactive

For `Cc1cccc(C)c1NC(=O)CN(CC(=O)O)CC(=O)O` , which call appears in the assay record?
inactive

What is the recorded call for this molecule in the test? CC(C)(C)OCC1CO1 (centres undefined)
inactive
